# study-target: MST4 (human) (UniProt Q9P289)
# Sequence (Q9P289 whole entry, looked up): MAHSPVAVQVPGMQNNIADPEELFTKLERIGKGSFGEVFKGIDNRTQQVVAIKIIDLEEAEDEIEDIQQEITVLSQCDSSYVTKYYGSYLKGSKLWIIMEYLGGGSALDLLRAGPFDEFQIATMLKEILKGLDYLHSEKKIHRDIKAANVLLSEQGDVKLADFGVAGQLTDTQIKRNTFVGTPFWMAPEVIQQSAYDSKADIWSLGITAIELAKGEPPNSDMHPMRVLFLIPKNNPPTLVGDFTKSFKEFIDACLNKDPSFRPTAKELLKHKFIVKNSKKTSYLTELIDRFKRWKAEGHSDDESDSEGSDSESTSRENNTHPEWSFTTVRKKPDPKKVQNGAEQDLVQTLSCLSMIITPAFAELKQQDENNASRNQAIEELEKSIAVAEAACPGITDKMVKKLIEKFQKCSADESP
# experimental-protocol: radiometric filter-binding kinase assay
# assay-conditions: compound 10.0 µM
outcome-measure: residual activity (%)

// N#Cc1c(C2CCNCC2)cc(-c2c(O)cccc2OCC2CC2)nc1N : residual activity value = 102

The reported value for O=C(Nc1ccccc1-c1cn2c(CN3CCNCC3)csc2n1)c1cnc2ccccc2n1 in terms of residual activity is 77

Value of measured residual activity for the entry Cc1nc(-c2ccc(OCC(C)C)c(C#N)c2)sc1C(=O)O : 90

residual activity in this record for O=C(NOCC(O)CO)c1ccc(F)c(F)c1Nc1ccc(I)cc1Cl (configuration not stated) : 94

Query NC(=O)c1cc(-c2ccnc(NC3CCCCC3)c2)nc(N2CCNCC2)c1 yields residual activity of 95

Entry O=C(O)c1cc(N=Nc2ccc(S(=O)(=O)Nc3ccccn3)cc2)ccc1O — recorded residual activity = 104

The compound CNc1nc(-c2ccc3c(N)n[nH]c3c2)cc(N2C[C@@H](C(=O)NC3CCCCC3)CC[C@H]2C)n1 showed residual activity equal to 102

Origin of measurements: the kinase profiling compilation of Christmann-Franck et al. (2016)
